# Test system: MOLT-4 leukemia
# assay_overview: NCI tumour cell line growth inhibition, 48 h
Where a SMILES comes first, the peptide text is derived from it. [ ]: non-standard residue; d: D form. The star is where a group is joined. NMeF = CN[C@@H](Cc1ccccc1)C(=O)O; NMeV = CN[C@H](C(=O)O)C(C)C; Boc = CC(C)(C)OC(=O)*; OBn = c1ccc(CO*)cc1
compounds and their reported TGI
observable: TGI

compound	assay_result
CC1=CC(=O)C(=CN2C(=O)/C(=C\c3cccnc3)NC2=S)C(=O)O1	> 100 µM
C=C1CC2CC(=O)C(O)C(C1)C2 (centres undefined)	> 100 µM
COc1ccc(-c2cc(-c3cc(C)ccc3O)[nH]c(=O)n2)cc1	> 100 µM
CC(C)[C@@H](C(=O)N1CCC[C@H]1C(=O)OCc1ccccc1)N(C)C(=O)[C@H](C(C)C)N(C)C(=O)[C@H](Cc1ccccc1)N(C)C(=O)[C@H](NC(=O)OC(C)(C)C)C(C)C (Boc-[dV][NMeF][NMeV][NMeV]P-OBn)	> 100 µM
C=C(C)[C@H]1C[C@@H]2O[C@@](O)(/C(C)=C\C(=O)/C=C(/C)C[C@H]3OC(=O)[C@@]24O[C@H]34)[C@@H]1O	> 100 µM
CCOC(=O)c1[nH]cc(C)c1-c1c[nH]c2ccccc12	27.9 µM
COC1=CC(c2ccc[nH]2)=N/C1=C\c1[nH]c(C)c(C(C)=O)c1C	> 100 µM
Cc1ccc2c(c1)C(C1Cc3cccc(C)c3C1=O)OC2=O (centres undefined)	> 100 µM
N#CCCOCN(CO)c1nc(N(CO)COCCC#N)nc(N(CO)COCCC#N)n1	50.7 µM
